Below, each entry is listed alongside its reported tube area decrease.
# Test Details: inhibition of endothelial tube formation, primary screen, imaging, VEGF stimulated, CD31 staining, tube area, NPC library (AID 1117340)
# Test Parameters: VEGF-stimulated ADSC/ECFC co-culture, at 10 µM, hits give high values
Quantity Measured: tube area decrease (%)

Compound | Quantity Measured | Measurement Unit | Measured
NC(=S)N/N=C/c1cccnc1 | tube area decrease | % | -13.5
CCN(CC)CCOc1ccccc1C(=O)CCc1ccccc1 | tube area decrease | % | 0.9
Cc1c(C(C)C)c(=O)n(-c2ccccc2)n1C | tube area decrease | % | -2.7
CC(=O)N1C[C@H](O)C[C@H]1C(=O)O | tube area decrease | % | -1.7
CCCCCCCCCCCCOCCOCCOCCOCCOCCOCCOCCOCCOCCO | tube area decrease | % | 47.8
CC(C)(C)NCC(O)COc1ccc(NC(=O)NC2CCCCC2)cc1 (configuration not stated) | tube area decrease | % | 9.5
CCN1CCCC1=O | tube area decrease | % | -19.9

Values were extracted from PubChem BioAssay.
